Tested on: NCI-H3122
MEASUREMENT_NOTES: relative viability (nuclei count vs DMSO), 5 days (fraction); higher = more cells survive
DETAILS: first compound 0.006325 µM
MEASUREMENT_LABEL: relative viability
Response field accepts a number only; no unit should be typed.

Worked examples follow.
COMPOUND: CCNC(=O)c1noc(-c2cc(C(C)C)c(O)cc2O)c1-c1ccc(CN2CCOCC2)cc1 [Luminespib] + Cc1cc(Nc2cc(N3CCN(C)CC3)nc(Sc3ccc(NC(=O)C4CC4)cc3)n2)n[nH]1 [Tozasertib] (partner 0.1 µM)
STUDY_SYSTEM: NCI-H3122
relative viability: 0.39
//
COMPOUND: CCNC(=O)c1noc(-c2cc(C(C)C)c(O)cc2O)c1-c1ccc(CN2CCOCC2)cc1 [Luminespib] + CS(=O)(=O)N1CCN(Cc2cc3nc(-c4cccc5[nH]ncc45)nc(N4CCOCC4)c3s2)CC1 [Pictilisib] (partner 1 µM)
STUDY_SYSTEM: NCI-H3122
relative viability: 0.621
//
COMPOUND: CCNC(=O)c1noc(-c2cc(C(C)C)c(O)cc2O)c1-c1ccc(CN2CCOCC2)cc1 [Luminespib] + Cc1nc(NC(=O)N2CCC[C@H]2C(N)=O)sc1-c1ccnc(C(C)(C)C(F)(F)F)c1 [Alpelisib] (partner 2 µM)
STUDY_SYSTEM: NCI-H3122
relative viability: 0.672
//
COMPOUND: CCNC(=O)c1noc(-c2cc(C(C)C)c(O)cc2O)c1-c1ccc(CN2CCOCC2)cc1 [Luminespib] + CC(=O)c1c(C)c2cnc(Nc3ccc(N4CCNCC4)cn3)nc2n(C2CCCC2)c1=O [Palbociclib] (partner 0.5 µM)
STUDY_SYSTEM: NCI-H3122
relative viability: 0.233
//
COMPOUND: CCNC(=O)c1noc(-c2cc(C(C)C)c(O)cc2O)c1-c1ccc(CN2CCOCC2)cc1 [Luminespib] + N=C(N)NC(=N)NCCc1ccccc1 [Phenformin] (partner 250 µM)
STUDY_SYSTEM: NCI-H3122
relative viability: 0.32

Quick one: give measured relative viability for CCNC(=O)c1noc(-c2cc(C(C)C)c(O)cc2O)c1-c1ccc(CN2CCOCC2)cc1 [Luminespib] + COc1cc2c(Oc3ccc(NC(=O)C4(C(=O)Nc5ccc(F)cc5)CC4)cc3F)ccnc2cc1OCCCN1CCOCC1 [Foretinib] (partner 0.25 µM)
0.887

* * *

Tested on: NCI-H2023
MEASUREMENT_NOTES: relative viability (nuclei count vs DMSO), 5 days (fraction); higher = more cells survive
DETAILS: first compound 0.01 µM
MEASUREMENT_LABEL: relative viability
Response field accepts a number only; no unit should be typed.

Worked examples follow.
MOLECULE: Cc1cn(-c2cc(NC(=O)c3ccc(C)c(Nc4nccc(-c5cccnc5)n4)c3)cc(C(F)(F)F)c2)cn1 [Nilotinib] + C[C@@H](Oc1cc(-c2cnn(C3CCNCC3)c2)cnc1N)c1c(Cl)ccc(F)c1Cl [Crizotinib] (partner 1 µM)
READING: 0.852
--
MOLECULE: Cc1cn(-c2cc(NC(=O)c3ccc(C)c(Nc4nccc(-c5cccnc5)n4)c3)cc(C(F)(F)F)c2)cn1 [Nilotinib] + CC(=O)Nc1cccc(-n2c(=O)n(C3CC3)c(=O)c3c(Nc4ccc(I)cc4F)n(C)c(=O)c(C)c32)c1 [Trametinib] (partner 0.02 µM)
READING: 0.508
--
MOLECULE: Cc1cn(-c2cc(NC(=O)c3ccc(C)c(Nc4nccc(-c5cccnc5)n4)c3)cc(C(F)(F)F)c2)cn1 [Nilotinib] + CC(C)C[C@H](NC(=O)[C@H](Cc1ccccc1)NC(=O)c1cnccn1)B(O)O [Bortezomib] (partner 0.002 µM)
READING: 1.16

Now for another entry.
Quick one: give measured relative viability for Cc1cn(-c2cc(NC(=O)c3ccc(C)c(Nc4nccc(-c5cccnc5)n4)c3)cc(C(F)(F)F)c2)cn1 [Nilotinib] + Cc1nc(NC(=O)N2CCC[C@H]2C(N)=O)sc1-c1ccnc(C(C)(C)C(F)(F)F)c1 [Alpelisib] (partner 2 µM)
0.654
